Experiment: self-splicing fitness, log relative to wild type (ln ratio); higher = more splicing; Tetrahymena group I intron in knt gene, E. coli kanamycin selection, DiMSum; sequences stand for … in CUCUCU…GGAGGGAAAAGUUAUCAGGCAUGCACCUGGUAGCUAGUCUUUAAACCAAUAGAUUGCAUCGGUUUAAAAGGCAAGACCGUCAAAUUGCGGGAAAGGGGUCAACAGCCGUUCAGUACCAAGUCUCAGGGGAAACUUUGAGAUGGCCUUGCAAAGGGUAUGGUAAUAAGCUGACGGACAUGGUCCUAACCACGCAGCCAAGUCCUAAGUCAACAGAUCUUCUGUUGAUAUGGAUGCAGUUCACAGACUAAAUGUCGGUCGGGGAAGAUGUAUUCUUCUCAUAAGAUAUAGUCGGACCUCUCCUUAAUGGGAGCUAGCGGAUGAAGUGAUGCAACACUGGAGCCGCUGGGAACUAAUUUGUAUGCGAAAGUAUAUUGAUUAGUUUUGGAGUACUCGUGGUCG;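 further: selection with 25 µg/mL kanamycin versus none on LB agar overnight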
Settings: 30 °C
Class TRUE: self-splicing fitness (ln) at least -2. Class FALSE: self-splicing fitness (ln) below -2.

[
  {
    "construct.sequence": "UUACAGCAAUAUUACGCUCG",
    "assigned.class": "TRUE"
  },
  {
    "construct.sequence": "AGUAAGCAAUAUUACGAGGA",
    "assigned.class": "FALSE"
  },
  {
    "construct.sequence": "CUACAGCAAUAUUACGACCU",
    "assigned.class": "FALSE"
  },
  {
    "construct.sequence": "GGGUAGCAAUAUUACGAGCG",
    "assigned.class": "TRUE"
  },
  {
    "construct.sequence": "AGUGAGCAAUAUUACGCGGA",
    "assigned.class": "FALSE"
  },
  {
    "construct.sequence": "ACUCAGCAAUAUUACGAUGA",
    "assigned.class": "TRUE"
  },
  {
    "construct.sequence": "AGGAAGCAAUAUUACGCCGG",
    "assigned.class": "TRUE"
  },
  {
    "construct.sequence": "UCAUAGCAAUAUUACGUGGG",
    "assigned.class": "FALSE"
  },
  {
    "construct.sequence": "GAUCAGCAAUAUUACGCUCG",
    "assigned.class": "TRUE"
  },
  {
    "construct.sequence": "AUGUAGCAAUAUUACGUUCA",
    "assigned.class": "TRUE"
  },
  {
    "construct.sequence": "UGUGAGCAAUAUUACGCUUG",
    "assigned.class": "FALSE"
  },
  {
    "construct.sequence": "UGGCAGCAAUAUUACGGCCC",
    "assigned.class": "TRUE"
  },
  {
    "construct.sequence": "GGCGAGCAAUAUUACGGAUG",
    "assigned.class": "FALSE"
  },
  {
    "construct.sequence": "AGCAAGCAAUAUUACGCUGG",
    "assigned.class": "FALSE"
  },
  {
    "construct.sequence": "GCAUAGCAAUAUUACGGAGA",
    "assigned.class": "FALSE"
  },
  {
    "construct.sequence": "AGGCAGCAAUAUUACGUCGU",
    "assigned.class": "TRUE"
  },
  {
    "construct.sequence": "UGAGAGCAAUAUUACGCGAU",
    "assigned.class": "FALSE"
  },
  {
    "construct.sequence": "GGCAAGCAAUAUUACGUGUC",
    "assigned.class": "FALSE"
  },
  {
    "construct.sequence": "UGCGAGCAAUAUUACGGAUG",
    "assigned.class": "FALSE"
  },
  {
    "construct.sequence": "GAUAAGCAAUAUUACGGUGA",
    "assigned.class": "TRUE"
  },
  {
    "construct.sequence": "UCUCAGCAAUAUUACGAGAC",
    "assigned.class": "FALSE"
  },
  {
    "construct.sequence": "AGCUAGCAAUAUUACGAUCG",
    "assigned.class": "TRUE"
  },
  {
    "construct.sequence": "AUUCAGCAAUAUUACGGCUC",
    "assigned.class": "TRUE"
  },
  {
    "construct.sequence": "GGCAAGCAAUAUUACGAGGG",
    "assigned.class": "FALSE"
  },
  {
    "construct.sequence": "CGAUAGCAAUAUUACGUCAU",
    "assigned.class": "FALSE"
  },
  {
    "construct.sequence": "GAUGAGCAAUAUUACGGAGA",
    "assigned.class": "FALSE"
  },
  {
    "construct.sequence": "AAGAAGCAAUAUUACGGGUG",
    "assigned.class": "TRUE"
  },
  {
    "construct.sequence": "UGCCAGCAAUAUUACGACAG",
    "assigned.class": "TRUE"
  },
  {
    "construct.sequence": "UAGGAGCAAUAUUACGGCUA",
    "assigned.class": "TRUE"
  },
  {
    "construct.sequence": "AAUGAGCAAUAUUACGCCGA",
    "assigned.class": "FALSE"
  },
  {
    "construct.sequence": "UCGCAGCAAUAUUACGGGCG",
    "assigned.class": "FALSE"
  },
  {
    "construct.sequence": "GUGGAGCAAUAUUACGAUUU",
    "assigned.class": "TRUE"
  },
  {
    "construct.sequence": "GGGCAGCAAUAUUACGACGG",
    "assigned.class": "FALSE"
  },
  {
    "construct.sequence": "UUCUAGCAAUAUUACGUAAC",
    "assigned.class": "FALSE"
  },
  {
    "construct.sequence": "UAUAAGCAAUAUUACGCAUU",
    "assigned.class": "FALSE"
  },
  {
    "construct.sequence": "UGCAAGCAAUAUUACGAGGC",
    "assigned.class": "FALSE"
  },
  {
    "construct.sequence": "ACGUAGCAAUAUUACGUAGC",
    "assigned.class": "FALSE"
  },
  {
    "construct.sequence": "CCAGAGCAAUAUUACGAACC",
    "assigned.class": "FALSE"
  },
  {
    "construct.sequence": "UACGAGCAAUAUUACGUGUU",
    "assigned.class": "FALSE"
  },
  {
    "construct.sequence": "UCCAAGCAAUAUUACGCCCA",
    "assigned.class": "TRUE"
  },
  {
    "construct.sequence": "CCCGAGCAAUAUUACGGGCC",
    "assigned.class": "FALSE"
  },
  {
    "construct.sequence": "UUAAAGCAAUAUUACGCUUG",
    "assigned.class": "TRUE"
  },
  {
    "construct.sequence": "AAGCAGCAAUAUUACGUAGG",
    "assigned.class": "FALSE"
  },
  {
    "construct.sequence": "AUGUAGCAAUAUUACGACAU",
    "assigned.class": "TRUE"
  },
  {
    "construct.sequence": "GUCCAGCAAUAUUACGGGAG",
    "assigned.class": "TRUE"
  },
  {
    "construct.sequence": "UCUCAGCAAUAUUACGUCCU",
    "assigned.class": "FALSE"
  },
  {
    "construct.sequence": "ACACAGCAAUAUUACGUCCU",
    "assigned.class": "TRUE"
  },
  {
    "construct.sequence": "GGCUAGCAAUAUUACGCUGU",
    "assigned.class": "FALSE"
  },
  {
    "construct.sequence": "UAACAGCAAUAUUACGCAAU",
    "assigned.class": "FALSE"
  },
  {
    "construct.sequence": "UGACAGCAAUAUUACGCCCC",
    "assigned.class": "TRUE"
  },
  {
    "construct.sequence": "CGAGAGCAAUAUUACGGUAG",
    "assigned.class": "TRUE"
  },
  {
    "construct.sequence": "CCGAAGCAAUAUUACGGCUU",
    "assigned.class": "FALSE"
  },
  {
    "construct.sequence": "AAAUAGCAAUAUUACGGCUC",
    "assigned.class": "TRUE"
  },
  {
    "construct.sequence": "ACGAAGCAAUAUUACGGGCA",
    "assigned.class": "TRUE"
  },
  {
    "construct.sequence": "UUGCAGCAAUAUUACGCGCC",
    "assigned.class": "FALSE"
  },
  {
    "construct.sequence": "CCUAAGCAAUAUUACGGCCG",
    "assigned.class": "TRUE"
  },
  {
    "construct.sequence": "AGCUAGCAAUAUUACGUCCA",
    "assigned.class": "TRUE"
  },
  {
    "construct.sequence": "GUGCAGCAAUAUUACGCCGG",
    "assigned.class": "FALSE"
  },
  {
    "construct.sequence": "UAUAAGCAAUAUUACGCCGA",
    "assigned.class": "TRUE"
  },
  {
    "construct.sequence": "CUUCAGCAAUAUUACGGGCC",
    "assigned.class": "TRUE"
  },
  {
    "construct.sequence": "AAUGAGCAAUAUUACGUCAC",
    "assigned.class": "FALSE"
  },
  {
    "construct.sequence": "UCGAAGCAAUAUUACGUAGA",
    "assigned.class": "TRUE"
  },
  {
    "construct.sequence": "UGGCAGCAAUAUUACGGGGC",
    "assigned.class": "FALSE"
  },
  {
    "construct.sequence": "GCACAGCAAUAUUACGACUA",
    "assigned.class": "TRUE"
  },
  {
    "construct.sequence": "AUUAAGCAAUAUUACGGAUG",
    "assigned.class": "FALSE"
  },
  {
    "construct.sequence": "UCUCAGCAAUAUUACGGGGC",
    "assigned.class": "FALSE"
  },
  {
    "construct.sequence": "UAUCAGCAAUAUUACGAUGC",
    "assigned.class": "FALSE"
  }
]

Cited source: the supplement of paper PMC7877785
